B1: Formin-binding protein 4, residues 200 to 261; numbered along this chain, Q8N3X1 (parent)
chain: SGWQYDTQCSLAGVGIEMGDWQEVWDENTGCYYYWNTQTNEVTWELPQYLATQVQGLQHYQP

variants of: B1; assay: abundance fitness (aPCA) (normalised: wild type 0, dead -1); higher = more abundant; growth selection in yeast, the domain comes from the species named; details: Homo sapiens
RECORDED_METRIC: abundance fitness
Give bare numbers.

SGWQYDTQCSLATVGIEMGDWQEVWDENTGCYYYWNTQTNEVTWELPQYLATQVQGLQHYQP [G13T] = -0.009
SGWQYDTQCSLAGVGIEMGDWQEVWDENTGCYYYWNTQTNEVTWELPQYLATQVQGLYHYQP [Q58Y] = -0.256
SGWQYDTQCSLAGVGIEMGDWQEVWDENTGCYYYWNTQRNEVTWELPQYLATQVQGLQHYQP [T39R] = -0.306

Parameters: items (list). Returns: abundance fitness for each item.
1. SGWQYDTQCSLAGVGIEMGDWQEVWDENTGCYYYWNTQTNEVTWELPQYLATQVQGLFHYQP [Q58F]
2. SGWQYDTQQSLAGVGIEMGDWQEVWDENTGCYYYWNTQTNEVTWELPQYLATQVQGLQHYQP [C9Q]
3. SGWVYDTQCSLAGVGIEMGDWQEVWDENTGCYYYWNTQTNEVTWELPQYLATQVQGLQHYQP [Q4V]
4. SGWQYDTQCSLAGVGIEMGDWQEVWDENTGCYYYWNTQTNEVTWELPQYLATQVQGFQHYQP [L57F]

-0.195
0.017
0.147
0.02

Parameters: items (list). Returns: abundance fitness for each item.
1. NGWQYDTQCSLAGVGIEMGDWQEVWDENTGCYYYWNTQTNEVTWELPQYLATQVQGLQHYQP [S1N]
2. SGWQYDTQCSLAGVGIEMGDWQEVWDENTGCYYYWNTQTNEVTWELPQWLATQVQGLQHYQP [Y49W]
3. SGWQYDTQCSLAGVGIEMGDWQEVWDENTGCYYYWNTQTNEVTWELPQYLATRVQGLQHYQP [Q53R]
4. SGWQYDTQCSLAGVNIEMGDWQEVWDENTGCYYYWNTQTNEVTWELPQYLATQVQGLQHYQP [G15N]
5. SGWQYDTQCSLAGVGIEMGDWQEVWDENTGCYYYWNTLTNEVTWELPQYLATQVQGLQHYQP [Q38L]
6. SGWQYDTQCSLAGVGIEMGDWQEEWDENTGCYYYWNTQTNEVTWELPQYLATQVQGLQHYQP [V24E]
7. SGWQYVTQCSLAGVGIEMGDWQEVWDENTGCYYYWNTQTNEVTWELPQYLATQVQGLQHYQP [D6V]

[-0.093, -0.266, -0.215, -0.21, -0.133, -0.217, -0.829]

Parameters: items (list). Returns: abundance fitness for each item.
1. SGWQYDTQCSLAGVGIEMGDWQEVWDENTGCYYYWNTQTNEVTWELPQYLATQVQGLNHYQP [Q58N]
2. SGWQYDTQCSLAGVGIEMGDWQEVWDENTGCYYYWNTQTNEVTWELPQYLATQVVGLQHYQP [Q55V]
3. SGWQYDTQCSLAGVGIEMGDWQEVWDENTGCYYYWNTQFNEVTWELPQYLATQVQGLQHYQP [T39F]
4. SGWQYDTQCSLAGVGIEMGIWQEVWDENTGCYYYWNTQTNEVTWELPQYLATQVQGLQHYQP [D20I]
5. SGWQYDTQCSLAGVGIEMGDWQEVWDENTGCYYYWNTQTNEVTWELPQYLATQVQGLQQYQP [H59Q]
6. SGWQYKTQCSLAGVGIEMGDWQEVWDENTGCYYYWNTQTNEVTWELPQYLATQVQGLQHYQP [D6K]
7. SGWQYDTQCSLAGVGIEMGDWQEVWDENTGTYYYWNTQTNEVTWELPQYLATQVQGLQHYQP [C31T]

0.083
-0.173
-0.577
-0.579
0.083
0.009
-0.094

Parameters: items (list). Returns: abundance fitness for each item.
1. SGWQYDTQCSLAGVGIEMGDWQEVHDENTGCYYYWNTQTNEVTWELPQYLATQVQGLQHYQP [W25H]
2. SGWQYDTQCSLAGVGIEMGDWQEVWDENTGCYYYWNTQTNEETWELPQYLATQVQGLQHYQP [V42E]
3. SGWQYDTQCSLAGVGIEMGDWQEVWDENTGCYYYWNTQTNEVTWELPQYLATQVQGLQFYQP [H59F]

1. -0.256
2. 0.063
3. -0.062

Provenance of the data: the Human Domainome abundance scans (Beltran et al. 2025)
